# Target Desc: SpLsb1
# Assay: SPOT peptide array binding signal intensity (averaged, normalized) (arbitrary units (background-subtracted, floor 0; scale differs between SH3 domains)); higher = stronger binding of the SH3 domain to the peptide
binders and their reported SPOT peptide array binding signal intensity
// return a plain number; no unit text

Known SPOT peptide array binding signal intensity results, listed for orientation:
Ask: Form field: reported SPOT peptide array binding signal intensity of `VATSTSPKLPPRGKQ`
Reply: 623

Ask: Please do the same for `IPSRPAPKPPSSASA` as well.
Reply: 13.5

Ask: Please do the same for `FVLRYYILIPHEQWD` as well.
Reply: 2.5

Next:
Ask: Form field: reported SPOT peptide array binding signal intensity of `TKHKAPPPPPPTAET`
Reply: 0.5
